TARGET DESC: T1, LGR7 (RXFP1) receptor (UniProt Q9HBX9 1-757, limits assumed)
T1 construct: whole, on cells
T1 sequence (looked up): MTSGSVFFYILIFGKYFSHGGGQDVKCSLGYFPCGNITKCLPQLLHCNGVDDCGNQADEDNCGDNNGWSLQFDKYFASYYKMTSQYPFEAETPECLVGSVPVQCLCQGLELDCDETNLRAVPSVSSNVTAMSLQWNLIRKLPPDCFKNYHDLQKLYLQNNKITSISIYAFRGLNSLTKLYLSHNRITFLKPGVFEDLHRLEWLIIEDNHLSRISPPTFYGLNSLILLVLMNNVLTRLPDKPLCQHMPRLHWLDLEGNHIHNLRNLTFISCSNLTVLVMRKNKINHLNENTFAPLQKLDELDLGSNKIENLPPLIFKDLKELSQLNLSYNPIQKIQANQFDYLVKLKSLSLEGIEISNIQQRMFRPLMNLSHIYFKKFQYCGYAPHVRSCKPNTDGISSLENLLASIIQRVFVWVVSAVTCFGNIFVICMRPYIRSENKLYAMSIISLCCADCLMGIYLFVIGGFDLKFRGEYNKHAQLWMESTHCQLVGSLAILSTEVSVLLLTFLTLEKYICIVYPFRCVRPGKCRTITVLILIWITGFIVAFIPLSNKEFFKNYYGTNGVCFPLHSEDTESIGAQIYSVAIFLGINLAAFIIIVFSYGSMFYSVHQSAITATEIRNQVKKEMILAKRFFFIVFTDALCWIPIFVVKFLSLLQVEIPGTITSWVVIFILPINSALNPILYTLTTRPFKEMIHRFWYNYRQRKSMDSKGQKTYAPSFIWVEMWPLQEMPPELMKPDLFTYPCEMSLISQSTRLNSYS
TEST METHOD NOTES: whole cell competition binding against 100 pM [125I]-H2 relaxin, LGR7-transfected HEK293T cells
No end group written: not given here.
ATTRIBUTE MEASURED: pKi (pKi)
Just the number please, in pKi, no unit attached.

For the binder chimeric relaxin polypeptide H2 B chain/H3 relaxin A chain (designed binder, Synthetic two-chain chimera; The synthesis protocol is detailed only for H2-B/H1-A; also called H2-B/H3-A) chain 1: DSWMEEVIKLCGRELVRAQIAICGMSTWS chain 2: DVLAGLSSSCCKWGCSKSEISSLC , what pKi is on record?
6.8

For the binder human relaxin 3 (H3), wild-type; A + B chain (ligand, disulfide (positions not given here); also: A and B chains joined by disulphide bonds, places not given here, domain: B chain; Two-chain peptide hormone, A and B chains joined by disulphide bonds; also called H3 relaxin) chain 1: RAAPYGVRLCGREFIRAVIFTCGGSRW chain 2: DVLAGLSSSCCKWGCSKSEISSLC , what pKi is on record?
7.88

For the binder chimeric relaxin polypeptide H2 B chain/INSL3 A chain (designed binder, Synthetic two-chain chimera; The synthesis protocol is detailed only for H2-B/H1-A; also called H2-B/INSL3-A) chain 1: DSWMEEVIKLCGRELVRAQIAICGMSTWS chain 2: AAATNPARYCCLSGCTQQDLLTLCPY , what pKi is on record?
6.21
